Assay Remarks: Literature: pharmacokinetics of dyphylline and related derivatives in humans
Condition Details: human, in vivo, po, 5 mg/kg, 5 mg/kg tablet; from Simons et al.; read-out: Total Vd
Assay Readout: Vd/F

1) Cn1c(=O)c2c(ncn2CC(O)CO)n(C)c1=O (stereo not shown) [dyphylline, dihydroxypropyl theophylline] :: 0.58 L/kg

----------
Assay Remarks: Theophylline (aminophylline) intravenous infusion in rabbits: blood concentration, pharmacokinetics, toxicity (Example 1)
Assay type: in vivo, female New Zealand White rabbits
Condition Details: rabbit, in vivo, iv, 40 mg/kg, Vel (β)
Procedure: Analytical grade chemicals were used without further purification. All water was distilled prior to use. 250 mg/10 ml aminophylline injection (Searle Laboratories, Chicago, Ill.) was diluted with an appropriate amount of distilled water for injection. Dyphylline powder (Lemmon Company, Sellersville, Pa.) was dissolved in distilled water for injection. […]
Assay Readout: Vd

1. Cn1c(=O)c2[nH]cnc2n(C)c1=O :: 0.562 L/kg

Each recorded value in this set is attributed to patent US4581359A.
